Test system: M19-MEL melanoma
EXPERIMENT_SUMMARY: NCI tumour cell line growth inhibition, 48 h
Where a SMILES comes first, the peptide text is derived from it. [ ]: non-standard residue; d: D form. The star is where a group is joined. ξ: configuration not given here. NMeF = CN[C@@H](Cc1ccccc1)C(=O)O; ξNMeV = CNC(C(=O)O)C(C)C; Boc = CC(C)(C)OC(=O)*; OBn = c1ccc(CO*)cc1

COMPOUND: Cc1cc(C(=O)N2CCN(Cc3ccccc3)CC2)c(C)o1
TGI: > 100 µM
//
COMPOUND: C=C(CS(=O)(=O)c1ccccc1)[P+](c1ccccc1)(c1ccccc1)c1ccccc1
TGI: 50.4 µM
//
COMPOUND: O=c1c2ccccc2nc(-c2ccccc2)n1NC(=S)Nc1ccc(Cl)cc1[N+](=O)[O-]
TGI: > 100 µM
//
COMPOUND: O=C(O)CCC1(Br)CCCCC(Br)C1=O (stereo unspecified)
TGI: > 100 µM
//
COMPOUND: CC1=C(c2cc(C(=O)Nc3ccc(Cl)c(Cl)c3)nc(N)n2)Sc2ccccc2N1
TGI: > 100 µM
//
COMPOUND: CCCCN(CCCC)CCCCNc1c(C)cnc2cc(Cl)ccc12
TGI: > 100 µM
//
COMPOUND: CC(C)C(C(=O)N1CCC[C@@H]1C(=O)OCc1ccccc1)N(C)C(=O)C(C(C)C)N(C)C(=O)[C@H](Cc1ccccc1)N(C)C(=O)[C@H](NC(=O)OC(C)(C)C)C(C)C (stereo partly specified) (Boc-[dV][NMeF][ξNMeV][ξNMeV][dP]-OBn)
TGI: > 100 µM
//
COMPOUND: CC(C)=CCc1c(C)cc2cc3c(c(O)c2c1O)C(O)=CC(=O)C3(CC=C(C)C)C/C=C(\C)CO (stereo unspecified)
TGI: 79.9 µM
//
COMPOUND: O=C1Nc2ccccc2Nc2nc3cccccc-3c21
TGI: > 100 µM
//
COMPOUND: CC[O-].Cc1ccc2cccc([O-])c2n1.Cc1ccc2cccc([O-])c2n1.Cc1ccc2cccc([O-])c2n1.[Ti+4]
TGI: 27.7 µM
//
COMPOUND: N#CCC(=O)N/N=C1\C(=O)N(c2ccc(Cl)cc2)C(=O)C(=O)C1c1nc2ccccc2o1 (stereo unspecified)
TGI: > 100 µM
//
COMPOUND: CC(C)c1cccc(C(C)C)c1NC(=O)C(=O)C(C(=O)c1ccc2ccccc2c1)C1OC(=O)c2ccccc21 (stereo unspecified)
TGI: > 100 µM
//
COMPOUND: O=C(O)C1CCCCN1C(=O)c1ccccc1 (stereo unspecified)
TGI: > 100 µM
//
COMPOUND: N#CC(C#N)=C(N)/C(C#N)=C/c1cc(O)c(O)c(Br)c1
TGI: > 100 µM
//
COMPOUND: CC(C)C(=O)/C=C/c1ccc(Cl)cc1
TGI: 29.6 µM
//
COMPOUND: Nc1ncnc2c1ncn2C1CCC(CO)O1 (stereo unspecified)
TGI: > 100 µM
